TEST: yeast display, Sf9 membrane polyspecificity reagent, FACS + sequencing; frameworks hold sequencing errors
MEASURED_PARAMETER: polyreactivity (PSR sort gate)

These solved cases illustrate the format of a correct answer.
INPUT_SEQUENCE: QVQLVESGGGLVQAGGSLRLSCAASGRILNWNVMGWYRQAPGKERELVAGISSDGSTYADSVKGRFTISRDNAKNTVYFQMNSLKPEDTAVYYCAADRVGLSRGYDYWGQGTQVTVSS
polyreactivity (PSR sort gate): low polyreactivity
//
INPUT_SEQUENCE: QVQLVESGGGLVQAGGSLRLSCAASGSTFFPYAMGWYRQAPGKERELVAAITSGGRTKYADSVKGRFTISRDNAMNTVYLQMNSLKPEDTAVYYCAARGLIKEYGGPYRRFGYWGQGTQVTVSS
polyreactivity (PSR sort gate): high polyreactivity
//
INPUT_SEQUENCE: QDQLVESGVGLVQAGGSLRLSCAASGRIFGRYSMGWYRQAPGKEMEFVAAISKRGGGTYYADSVKGRFTISRDNAKNTVYLQMNSLKPEDSAVYYCAVDNSPGFDDYDYWGQGTQVTVSS
polyreactivity (PSR sort gate): high polyreactivity
//
INPUT_SEQUENCE: QVQLVESGGGLVQAGGSLRLSCAASGRIFDYYAMGWYRQAPGKERELVARITSGGTTNYADSVKGRFTISRDNAKNPVYLQMNSLKPEDTAVYYCAADVYGTVRRVGWYYVGEGYDYWGQGTQVTVSS
polyreactivity (PSR sort gate): low polyreactivity
//
INPUT_SEQUENCE: QVQLVESGGGLVQAGGSLRLSCAASGSIFARYAMGWYRQAPGKERELVAAISSSGSRTYYADSVKGRFTISRDNAKNTVYLQMNSLKPEDTAVYYCATRYGSASGREYEYWGQGTQVTVSS
polyreactivity (PSR sort gate): high polyreactivity
//
INPUT_SEQUENCE: QVQLVESGGGLVQAGGSLRLSCAASGRILYRYAMGWYRQAPGKERELVAAISYSGGSTSYADSVKGRFTISRDNAKNTVYVQMNSLKPEDTAVYYCAAAYYLLRYKKRYDYWGQGTQVTVSS
polyreactivity (PSR sort gate): high polyreactivity
//
INPUT_SEQUENCE: QVQLVESGGGLVQAGGSLRLSCAATGFTFGWNDMGWYRQARGKEMELVAAISGGGGSTYYADSVKGRFTISRDNAKNTVYLQMNSLKPEDTAVYYCATDSGTLIVKYDYWGQGTQVTVSS
polyreactivity (PSR sort gate): low polyreactivity
//
INPUT_SEQUENCE: QVQLVESGGGLVQAGGSLRLSCAASGRIFRIYAMGWYIQAPGKERELVARITYSVGSTYYADSVKGRFTISRDNEKNSVFLQMNSLKPEDTSVYYCAADWLGYQYGYWGQGSQVTVSS
polyreactivity (PSR sort gate): low polyreactivity
//
INPUT_SEQUENCE: QVQLVESGGGLVQAGGSLRLSCAASGFTFRFYALGWYRQAPGKERELVAAISRRGGTTYYADSVKGRFTISRDNAKNTVYLQMNSLKPEDTAVYYCNKDWTYEHGYWGQGTQVTVSS
polyreactivity (PSR sort gate): high polyreactivity
//
INPUT_SEQUENCE: QVQLVESGGGLVQAGGSLRLSCAASGSTFYYYAMGWYRQAPGKERELVAVIRDSDGSTDYADSVKGRFTISRDKAKNTVYLQMNSLKPEDTAVYYCAATNVRGVYYWGQGTQVTVSS
polyreactivity (PSR sort gate): high polyreactivity

Returns the measured polyreactivity (PSR sort gate) for the input sequence. Input: QVQLVESGGGLVQAGGSLRLSCAASGRTFGPYAMGWYRQAPGKEREFVAAISYSGGSTYYADSVKGRFTISRDIAKNTVYLQMNSLKPEDTAVYYCAARLPSDHRPVVRGGYEMGYWGQGTQVTVSS
low polyreactivity
